- System: LOX IMVI
- test.summary: Melanoma cytotoxicity assay (resazurin)
- Assay type: cell-based
- run.conditions: human, 24 h
measurement.name: LOX-IMVI (% viability) (%)
Respond numerically; units are % and should not be typed.

[
  {
    "compound": "CCNc1nc2c(s1)C1=CC[C@H]3[C@@H]4CC[C@H](O)[C@@]4(C)CC[C@@H]3[C@@]1(C)CC2 [IIIa.3]",
    "measurement.name": "LOX-IMVI (% viability)",
    "assay.value": 6
  },
  {
    "compound": "C[C@]12CC[C@H]3[C@@H](CC=C4c5sc(Nc6ccccc6)nc5CC[C@@]43C)[C@@H]1CC[C@@H]2O [IIIa.10]",
    "measurement.name": "LOX-IMVI (% viability)",
    "assay.value": 27
  },
  {
    "compound": "C[C@]12CC[C@H]3[C@@H](CC=C4c5sc(Nc6ccc(C(=O)O)cc6)nc5CC[C@@]43C)[C@@H]1CC[C@@H]2O [IIIa.26]",
    "measurement.name": "LOX-IMVI (% viability)",
    "assay.value": 79
  }
]

Recorded LOX-IMVI (% viability) of Cc1ccc(Nc2nc3c(s2)C2=CC[C@H]4[C@@H]5CC[C@H](O)[C@@]5(C)CC[C@@H]4[C@@]2(C)CC3)cc1 [IIIa.33] , please.
6

Recorded LOX-IMVI (% viability) of C=CCNc1nc2c(s1)C1=CC[C@H]3[C@@H]4CC[C@H](O)[C@@]4(C)CC[C@@H]3[C@@]1(C)CC2 [IIIa.6] , please.
11

====

Measured GI50, listed per entry for reference.
- System: 60 different human tumor cell lines
- test.summary: cells
- run.conditions: MCF7
Respond numerically; units are µM and should not be typed.

[
  {
    "structure": "C[C@]12CCc3sc(Nc4cccc(O)c4)nc3C1=CC[C@@H]1[C@@H]2CC[C@]2(C)C(=O)CC[C@@H]12",
    "unit.string": "µM",
    "GI50": 3.85
  }
]

Recorded GI50 of C[C@]12CCc3sc(NCCc4ccccc4)nc3C1=CC[C@@H]1[C@@H]2CC[C@]2(C)C(=O)CC[C@@H]12 , please.
2.68

Recorded GI50 of C[C@]12CC[C@H]3[C@@H](CC=C4c5sc(Nc6ccccc6)nc5CC[C@@]43C)[C@@H]1CC[C@@H]2O , please.
1.8

Recorded GI50 of C[C@]12CC[C@H]3[C@@H](CC=C4c5sc(-c6ccc(O)cc6)nc5CC[C@@]43C)[C@@H]1CC[C@@H]2O , please.
3.34

====

- Test system: 60 different human tumor cell lines
- run.conditions: read-out: LC50; SK-MEL-2 (Melanoma), five dose
measurement.name: CC50 (µM)
Respond numerically; units are µM and should not be typed.

Recorded CC50 of C[C@]12CCc3nc(N)sc3C1=CC[C@@H]1[C@@H]2CC[C@]2(C)C(=NNC(N)=O)CC[C@@H]12 , please.
12.4

====

- Tested on: 60 different human tumor cell lines
- run.conditions: read-out: LC50; HOP-62 (Non-small Cell Lung Cancer), five dose
measurement.name: CC50 (µM)
Respond numerically; units are µM and should not be typed.

For 60 different human tumor cell lines, provide CC50 of C[C@]12CCc3nc(N)sc3C1=CC[C@@H]1[C@@H]2CC[C@]2(C)C(=NNC(N)=O)CC[C@@H]12 please.
6.54

====

- Tested on: 60 different human tumor cell lines
- run.conditions: read-out: LC50; MDA-MB-468 (Breast Cancer), five dose
measurement.name: CC50 (µM)
Respond numerically; units are µM and should not be typed.

Recorded CC50 of C[C@]12CCc3nc(N)sc3C1=CC[C@@H]1[C@@H]2CC[C@]2(C)C(=NNC(N)=O)CC[C@@H]12 , please.
6.3

====

- Tested on: 60 different human tumor cell lines
- test.summary: NCI Development Therapeutics Program 60 cell line screen, one dose
- Assay type: cell-based
- run.conditions: Renal Cancer, 786-0
Measured Growth Percent, listed per entry for reference.
Quick note: unit goes after the number.

[
  {
    "compound": "C[C@]12CCc3sc(Nc4ccc(F)cc4F)nc3C1=CC[C@@H]1[C@@H]2CC[C@]2(C)C(=O)CC[C@@H]12 [IIa.10]",
    "tgt": "60 different human tumor cell lines",
    "assay.value": "−27.72%"
  }
]

Recorded Growth Percent of C[C@]12CC[C@H]3[C@@H](CC=C4c5sc(-c6ccc(O)cc6)nc5CC[C@@]43C)[C@@H]1CC[C@@H]2O [III.5] , please.
8.35%

Recorded Growth Percent of C[C@]12CCc3sc(Nc4ccc(OC(F)(F)F)cc4)nc3C1=CC[C@@H]1[C@@H]2CC[C@]2(C)C(=O)CC[C@@H]12 [IIa.19] , please.
30.50%

Recorded Growth Percent of C[C@]12CCc3sc(Nc4cccc(O)c4)nc3C1=CC[C@@H]1[C@@H]2CC[C@]2(C)C(=O)CC[C@@H]12 [IIa.17] , please.
−0.52%

Recorded Growth Percent of C[C@]12CC[C@H]3[C@@H](CC=C4c5sc(Nc6ccccc6)nc5CC[C@@]43C)[C@@H]1CC[C@@H]2O [IIIa.10] , please.
−49.68%

Recorded Growth Percent of C[C@]12CCc3nc(N)sc3C1=CC[C@@H]1[C@@H]2CC[C@]2(C)C(=NNC(N)=O)CC[C@@H]12 [IVb.1] , please.
−9.65%

Recorded Growth Percent of CN(c1ccccc1)c1nc2c(s1)CC[C@@]1(C)C2=CC[C@@H]2[C@@H]1CC[C@]1(C)C(=O)CC[C@@H]21 [IIa.6] , please.
58.79%

Recorded Growth Percent of C[C@]12CCc3nc(Nc4ccc(O)cc4)sc3C1=CC[C@@H]1[C@@H]2CC[C@]2(C)C(=O)CC[C@@H]12 [IIa.35] , please.
−3.03%

Recorded Growth Percent of C[C@]12CCc3sc(NCCc4ccccc4)nc3C1=CC[C@@H]1[C@@H]2CC[C@]2(C)C(=O)CC[C@@H]12 [IIa.2] , please.
4.36%

====

- System: 60 different human tumor cell lines
- run.conditions: read-out: LC50; MALME-3M (Melanoma), five dose
measurement.name: CC50 (µM)
Respond numerically; units are µM and should not be typed.

[
  {
    "structure": "C[C@]12CCc3nc(Nc4ccc(O)cc4)sc3C1=CC[C@@H]1[C@@H]2CC[C@]2(C)C(=O)CC[C@@H]12",
    "CC50 [µM]": 8.96
  }
]

// below: CC50 requested for another compound
Recorded CC50 of C[C@]12CCc3nc(N)sc3C1=CC[C@@H]1[C@@H]2CC[C@]2(C)C(=NNC(N)=O)CC[C@@H]12 , please.
6.9

====

- Test system: 60 different human tumor cell lines
- test.summary: cells
- run.conditions: A549
Rule: measured GI50 below 3 µM gets TRUE; anything equal to or greater than 3 µM gets FALSE.

State whether 3 µM exceeds GI50 recorded for C[C@]12CC[C@H]3[C@@H](CC=C4c5sc(-c6ccc(O)cc6)nc5CC[C@@]43C)[C@@H]1CC[C@@H]2O .
FALSE

State whether 3 µM exceeds GI50 recorded for C[C@]12CC[C@H]3[C@@H](CC=C4c5sc(Nc6ccccc6)nc5CC[C@@]43C)[C@@H]1CC[C@@H]2O .
TRUE

State whether 3 µM exceeds GI50 recorded for C[C@]12CCc3sc(Nc4ccc(OC(F)(F)F)cc4)nc3C1=CC[C@@H]1[C@@H]2CC[C@]2(C)C(=O)CC[C@@H]12 .
FALSE

State whether 3 µM exceeds GI50 recorded for C[C@]12CCc3sc(Nc4cccc(O)c4)nc3C1=CC[C@@H]1[C@@H]2CC[C@]2(C)C(=O)CC[C@@H]12 .
FALSE

State whether 3 µM exceeds GI50 recorded for C[C@]12CCc3sc(NCCc4ccccc4)nc3C1=CC[C@@H]1[C@@H]2CC[C@]2(C)C(=O)CC[C@@H]12 .
FALSE

====

- Tested on: 60 different human tumor cell lines
- test.summary: cells
- run.conditions: NCI-H23
Measured GI50, listed per entry for reference.
Respond numerically; units are µM and should not be typed.

[
  {
    "compound": "C[C@]12CC[C@H]3[C@@H](CC=C4c5sc(Nc6ccccc6)nc5CC[C@@]43C)[C@@H]1CC[C@@H]2O [IIIa.10]",
    "tgt": "60 different human tumor cell lines",
    "GI50 [µM]": 2.03
  },
  {
    "compound": "C[C@]12CC[C@H]3[C@@H](CC=C4c5sc(-c6ccc(O)cc6)nc5CC[C@@]43C)[C@@H]1CC[C@@H]2O [III.5]",
    "tgt": "60 different human tumor cell lines",
    "GI50 [µM]": 14
  },
  {
    "compound": "C[C@]12CCc3sc(Nc4cccc(O)c4)nc3C1=CC[C@@H]1[C@@H]2CC[C@]2(C)C(=O)CC[C@@H]12 [IIa.17]",
    "tgt": "60 different human tumor cell lines",
    "GI50 [µM]": 18.1
  },
  {
    "compound": "C[C@]12CCc3sc(NCCc4ccccc4)nc3C1=CC[C@@H]1[C@@H]2CC[C@]2(C)C(=O)CC[C@@H]12 [IIa.2]",
    "tgt": "60 different human tumor cell lines",
    "GI50 [µM]": 5.03
  }
]

Recorded GI50 of C[C@]12CCc3sc(Nc4ccc(OC(F)(F)F)cc4)nc3C1=CC[C@@H]1[C@@H]2CC[C@]2(C)C(=O)CC[C@@H]12 [IIa.19] , please.
3.73
